The reported measurements were obtained from paper PMC5280578.

- protocol.text: Pharmacokinetic analysis of nutlin3 in NSG mice
- Type: in vivo
- test.conditions: NSG, mouse, in vivo, po
result.type: Tmax
The reply should read as a number followed by its unit.

Q. Look up Tmax for this molecule: `COc1ccc(C2=N[C@@H](c3ccc(Cl)cc3)[C@@H](c3ccc(Cl)cc3)N2C(=O)N2CCNC(=O)C2)c(OC(C)C)c1`
A. 1 h
